# AD50 per entry
test system: Rattus norvegicus; test: Antagonistic potency of compound after oral administration in rats; format: functional

These solved cases illustrate the format of a correct answer.
C=CCN1CC[C@]23c4c5ccc(O)c4O[C@H]2C(=O)CC[C@@]3(O)[C@H]1C5
13 mg/kg
O=C1CC[C@@]2(O)[C@H]3Cc4ccc(O)c5c4[C@@]2(CCN3CC2CC2)[C@H]1O5 [NALTREXONE]
1.35 mg/kg
C=CCN1CC[C@]23c4c5ccc(O)c4O[C@H]2C(=O)CC[C@@]3(OC)C1C5
>30 mg/kg

Task item: Give the reported value of AD50 for this record: CCO[C@@]12CCC(=O)[C@@H]3Oc4c(O)ccc5c4[C@@]31CCN(CC1CC1)C2C5
Reply: 1.5 mg/kg

Task item: Give the reported value of AD50 for this record: CO[C@@]12CCC(=O)[C@@H]3Oc4c(O)ccc5c4[C@@]31CCN(CC1CC1)[C@@H]2C5
Reply: 4.4 mg/kg

Task item: Give the reported value of AD50 for this record: C=CCN1CC[C@]23c4c5ccc(O)c4O[C@H]2C(=O)CC[C@@]3(OCC)C1C5
Reply: 3.8 mg/kg

###

system: Rattus norvegicus; assay: Antagonistic potency of compound after subcutaneous administration in rats; type: functional
Measurement Type: AD50 (mg/kg)
Note: unit mg/kg is implicit; provide only the numeric part.

CCO[C@@]12CCC(=O)[C@@H]3Oc4c(O)ccc5c4[C@@]31CCN(CC1CC1)C2C5
0.005

Task item: Give the reported value of AD50 for this record: CO[C@@]12CCC(=O)[C@@H]3Oc4c(O)ccc5c4[C@@]31CCN(CC1CC1)[C@@H]2C5
Reply: 0.019

Task item: Give the reported value of AD50 for this record: O=C1CC[C@@]2(O)[C@H]3Cc4ccc(O)c5c4[C@@]2(CCN3CC2CC2)[C@H]1O5 [NALTREXONE]
Reply: 0.009

Task item: Give the reported value of AD50 for this record: C=CCN1CC[C@]23c4c5ccc(O)c4O[C@H]2C(=O)CC[C@@]3(OC)C1C5
Reply: 0.041

Task item: Give the reported value of AD50 for this record: C=CCN1CC[C@]23c4c5ccc(O)c4O[C@H]2C(=O)CC[C@@]3(O)[C@H]1C5 [NALOXONE]
Reply: 0.023

Task item: Give the reported value of AD50 for this record: C=CCN1CC[C@]23c4c5ccc(O)c4O[C@H]2C(=O)CC[C@@]3(OCC)C1C5
Reply: 0.034

###

assay: Partition coefficient (logP); format: physicochemical; settings: octanol/water; read-out: logP
# logP per entry
Write no unit; give the number alone.

C=CCN1CC[C@]23c4c5ccc(O)c4O[C@H]2C(=O)CC[C@@]3(O)[C@H]1C5
1.91

Task item: Give the reported value of logP for this record: CCO[C@@]12CCC(=O)[C@@H]3Oc4c(O)ccc5c4[C@@]31CCN(CC1CC1)C2C5
Reply: 3.58

Task item: Give the reported value of logP for this record: C=CCN1CC[C@]23c4c5ccc(O)c4O[C@H]2C(=O)CC[C@@]3(OCC)C1C5
Reply: 3.05

Task item: Give the reported value of logP for this record: CO[C@@]12CCC(=O)[C@@H]3Oc4c(O)ccc5c4[C@@]31CCN(CC1CC1)[C@@H]2C5
Reply: 3.05

Task item: Give the reported value of logP for this record: C=CCN1CC[C@]23c4c5ccc(O)c4O[C@H]2C(=O)CC[C@@]3(OC)C1C5
Reply: 2.52
